meta.source: paper PMC12115147

system: H69AR cells; assay: MTT cell viability assay in anthracycline-resistant H69AR cells; assay type: cell-based; conditions: Homo sapiens, 24 h, normalized to untreated control
Catalogue of compounds with associated viability at 100 µM

[
  {
    "compound": "C/C(=N/O)c1ccc(N(CCC(=O)O)c2nc(-c3ccc(Cl)cc3)cs2)cc1 [Compound 22]",
    "unit_descriptor": "%",
    "viability at 100 µM": 26.6
  },
  {
    "compound": "C/C(=N/O)c1ccc(N(CCC(=O)NN)c2nc(-c3ccc(Cl)cc3)cs2)cc1 [Compound 26]",
    "unit_descriptor": "%",
    "viability at 100 µM": 15.4
  },
  {
    "compound": "C/C(=N/O)c1ccc(N(CCC(=O)O)c2nc(-c3ccccc3)cs2)cc1 [Compound 21]",
    "unit_descriptor": "%",
    "viability at 100 µM": 23.5
  },
  {
    "compound": "C/C(=N/O)c1ccc(N(CCC(=O)NN)c2nc(-c3ccccc3)cs2)cc1 [Compound 25]",
    "unit_descriptor": "%",
    "viability at 100 µM": 48.4
  }
]
